In this section, each of the compounds is paired with its reported pIC50.
# target-under-test: Inhibitor of nuclear factor kappa-B kinase subunit alpha (Homo sapiens, UniProt O15111)
# Sequence (O15111 whole entry): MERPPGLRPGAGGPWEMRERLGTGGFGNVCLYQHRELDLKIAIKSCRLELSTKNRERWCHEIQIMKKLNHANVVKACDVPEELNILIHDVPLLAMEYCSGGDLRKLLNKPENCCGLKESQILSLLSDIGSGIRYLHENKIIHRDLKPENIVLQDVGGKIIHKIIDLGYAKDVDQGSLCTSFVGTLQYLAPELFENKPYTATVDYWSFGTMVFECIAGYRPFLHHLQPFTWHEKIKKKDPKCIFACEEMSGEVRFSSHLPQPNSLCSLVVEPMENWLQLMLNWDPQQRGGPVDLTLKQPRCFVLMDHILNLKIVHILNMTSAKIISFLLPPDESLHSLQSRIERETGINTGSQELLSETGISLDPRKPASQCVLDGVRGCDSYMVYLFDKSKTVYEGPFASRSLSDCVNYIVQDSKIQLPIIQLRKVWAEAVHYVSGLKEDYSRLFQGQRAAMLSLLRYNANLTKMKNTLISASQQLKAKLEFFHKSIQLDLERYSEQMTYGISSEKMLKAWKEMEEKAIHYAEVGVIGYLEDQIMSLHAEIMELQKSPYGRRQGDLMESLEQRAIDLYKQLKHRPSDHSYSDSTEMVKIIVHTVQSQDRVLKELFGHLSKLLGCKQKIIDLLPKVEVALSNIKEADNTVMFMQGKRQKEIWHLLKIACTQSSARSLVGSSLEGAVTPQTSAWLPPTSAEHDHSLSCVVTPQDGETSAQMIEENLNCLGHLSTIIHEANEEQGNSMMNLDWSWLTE
# test-method-notes: Inhibition of IKK1 in presence of 1 uM ATP
pIC50: −log10 of the molar value.
value-type: pIC50

smiles_representation=O=S1(=O)CCC(NS(=O)(=O)c2ccc(-c3ccnc4[nH]c(C5CCNCC5)cc34)cc2)CC1 target_under_test="Inhibitor of nuclear factor kappa-B kinase subunit alpha (Homo sapiens, UniProt O15111)" quantitative_result=7.50
smiles_representation=CC(C)c1cc2c(-c3ccc(S(=O)(=O)NCCO)cc3)ccnc2[nH]1 target_under_test="Inhibitor of nuclear factor kappa-B kinase subunit alpha (Homo sapiens, UniProt O15111)" quantitative_result=6.40
smiles_representation=CC(C)(C)c1cc2c(-c3ccc(S(=O)(=O)NCCO)cc3)ccnc2[nH]1 target_under_test="Inhibitor of nuclear factor kappa-B kinase subunit alpha (Homo sapiens, UniProt O15111)" quantitative_result=6.10
smiles_representation=CC(C)(C)c1cc2c(-c3ccc(S(=O)(=O)NC4CCS(=O)(=O)CC4)cc3)ccnc2[nH]1 target_under_test="Inhibitor of nuclear factor kappa-B kinase subunit alpha (Homo sapiens, UniProt O15111)" quantitative_result=7.60
smiles_representation=CC(C)(O)CNS(=O)(=O)c1ccc(-c2ccnc3[nH]c(C4CC4)cc23)cc1 target_under_test="Inhibitor of nuclear factor kappa-B kinase subunit alpha (Homo sapiens, UniProt O15111)" quantitative_result=6.50

----------
# test-method-notes: Half life in rat at 1 mg/kg, iv
# Type: ADME, organism-based
# Design: dose 1 mg/kg, route intravenous
# assay-setup: in vivo
value-type: half-life (min)

smiles_representation=O=S(=O)(NCCO)c1ccc(-c2ccnc3[nH]c(C4CC4)cc23)cc1 quantitative_result=36
smiles_representation=CC(C)c1cc2c(-c3ccc(S(=O)(=O)NCCO)cc3)ccnc2[nH]1 quantitative_result=27
smiles_representation=C[C@@H](CO)NS(=O)(=O)c1ccc(-c2ccnc3[nH]c(C4CC4)cc23)cc1 quantitative_result=54
smiles_representation=C[C@@H](CO)NS(=O)(=O)c1ccc(-c2ccnc3[nH]c(C(F)(F)F)cc23)cc1 quantitative_result=192
smiles_representation=CC(C)(O)CNS(=O)(=O)c1ccc(-c2ccnc3[nH]c(C4CC4)cc23)cc1 quantitative_result=42
smiles_representation=Cc1cc2c(-c3ccc(S(=O)(=O)NCC(C)(C)O)cc3)ccnc2[nH]1 quantitative_result=36

----------
# test-method-notes: Volume of distribution in rat
# Assay type: ADME, organism-based
# assay-setup: in vivo
Each item that follows carries a reported Vd.
value-type: Vd (L/kg)

smiles_representation=O=S(=O)(NCCO)c1ccc(-c2ccnc3[nH]c(C4CC4)cc23)cc1 quantitative_result=0.6
smiles_representation=CC(C)c1cc2c(-c3ccc(S(=O)(=O)NCCO)cc3)ccnc2[nH]1 quantitative_result=0.8

----------
# target-under-test: Inhibitor of nuclear factor kappa-B kinase subunit beta (Homo sapiens, UniProt O14920)
# Sequence (O14920 whole entry): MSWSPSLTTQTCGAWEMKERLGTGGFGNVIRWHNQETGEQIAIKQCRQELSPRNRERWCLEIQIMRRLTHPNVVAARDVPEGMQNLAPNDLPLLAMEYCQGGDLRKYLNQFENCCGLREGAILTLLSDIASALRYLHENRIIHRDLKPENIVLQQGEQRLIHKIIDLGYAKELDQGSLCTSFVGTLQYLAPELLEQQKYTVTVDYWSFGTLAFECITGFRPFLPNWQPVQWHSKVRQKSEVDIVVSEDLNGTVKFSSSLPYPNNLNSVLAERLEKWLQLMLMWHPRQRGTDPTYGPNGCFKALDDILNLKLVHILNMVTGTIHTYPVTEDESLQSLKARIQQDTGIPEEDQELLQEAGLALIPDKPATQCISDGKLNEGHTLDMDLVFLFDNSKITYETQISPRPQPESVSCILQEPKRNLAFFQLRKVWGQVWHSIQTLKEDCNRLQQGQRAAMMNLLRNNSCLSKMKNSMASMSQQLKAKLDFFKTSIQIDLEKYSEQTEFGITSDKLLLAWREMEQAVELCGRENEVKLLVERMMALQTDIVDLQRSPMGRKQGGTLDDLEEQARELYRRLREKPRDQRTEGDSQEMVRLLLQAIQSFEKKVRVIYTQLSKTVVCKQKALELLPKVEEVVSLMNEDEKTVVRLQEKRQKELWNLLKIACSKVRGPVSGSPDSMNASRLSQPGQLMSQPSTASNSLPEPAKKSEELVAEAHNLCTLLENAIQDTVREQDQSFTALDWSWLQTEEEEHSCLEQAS
# test-method-notes: Inhibition of IKK2 in human A549 cells assessed as inhibition of TNFalpha-induced NFKB activation
# Type: cell-based
value-type: IC50 (nM)

smiles_representation=O=S(=O)(NCCO)c1ccc(-c2ccnc3[nH]c(C4CC4)cc23)cc1 quantitative_result=200
smiles_representation=Cc1cc2c(-c3ccc(S(=O)(=O)N(C)CCO)cc3)ccnc2[nH]1 quantitative_result=794

Data origin: ChEMBL document CHEMBL2163232
